assay: qHTS for small molecule inhibitors of Yes1 kinase: Counter Assay (AID 686950); details: series mostly up to 76.9 µM;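 note: no kinase present so only ADP-Glo detection of a fixed ADP amount is tested; luminescence from ADP-Glo reporting ADP in a fixed ATP and ADP mixture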
Activity calls are given as the source filed them. Calls come from the whole dose curve; as a rule, active = well fitted curve in the direction sought with a large enough effect; inactive = no such curve, though single readings can be large or run the other way.
Measurement Type: outcome

Some solved entries appear below for comparison.
O=C(Nc1n[nH]c2nc(-c3ccco3)c(Br)cc12)C1CC1 | inactive
O=C(Nc1ccc(Oc2ccc3nc(NC(=O)c4ccccc4)[nH]c3c2)cc1)Nc1cc(C(F)(F)F)ccc1F | inactive
O=S1CCN(Cc2ccc(-c3ccc4ncnc(Nc5ccc(OCc6ccccc6)c(Cl)c5)c4c3)o2)CC1 | inactive
O=C1NC(=O)C(c2cccc(Cl)c2)=C1Nc1ccc(O)c(Cl)c1 | inactive

Now let's try a different one.
Inquiry: Consider the compound shown here: c1ccc(-c2[nH]ncc2-c2ccnc(-c3ccc(OCCn4ccnc4)cc3)c2)nc1 What is its recorded outcome?
Reply text: inactive
